Target: T1, human CD19 (human, UniProt P15391 20-291, biotinylated in the Biacore assay of Table 11)
T1 construct: also called isolated CD19; Human CD19 Protein
T1 sequence (looked up): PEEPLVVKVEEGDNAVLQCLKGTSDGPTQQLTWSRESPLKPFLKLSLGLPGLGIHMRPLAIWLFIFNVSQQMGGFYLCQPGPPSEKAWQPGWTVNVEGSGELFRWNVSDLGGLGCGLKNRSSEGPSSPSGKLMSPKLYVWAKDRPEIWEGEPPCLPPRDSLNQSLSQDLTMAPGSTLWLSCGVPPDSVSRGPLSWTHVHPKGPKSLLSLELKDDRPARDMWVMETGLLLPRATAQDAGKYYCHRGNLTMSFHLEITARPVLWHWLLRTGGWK
Test: Octet HTX (ForteBio), IgG on AHC sensor, 1:1 fit
Items are presented alongside their recorded koff.
Report the value in s⁻¹ with no unit label.

# count of solved cases: 3
1) CNG-CD19-102 (antibody, V domains shown, tested as IgG produced in yeast) VH: QVQLVQSGAEVKKPGASVKVSCKASGYEFTDYIMHWVRQAPGQGLEWMGYINPYNDGSKYTEKFQPRVTMTSDTSISTAYMELSRLRSDDTAVYYCARGTYYYGPQLFDYWGQGTTVTVSS VL: DIVMTQTPLSLSVTPGQPASISCKSSQSLETSTGTTYLNWYLQKPGQSPQLLIYRVSKRFSGVPDRFSGSGSGTDFTLKISRVEAEDVGVYYCLQLLEDPYTFGQGTKLEIK : 9.12e-05
2) CNG-CD19-101 (antibody, V domains shown, tested as IgG produced in yeast) VH: QVQLVQSGAEVKKPGASVKVSCKASGYDFTDYIMHWVRQAPGQGLEWMGYINPYNDGSKYTDKFQERVTMTSDTSISTAYMELSRLRSDDTAVYYCARGTYYYGPELFDYWGQGTTVTVSS VL: DIVMTQTPLSLSVTPGQPASISCKSSQSLETTTGTTYLNWYLQKPGQSPQLLIYRASKRFSGVPDRFSGSGSGTDFTLKISRVEAEDVGVYYCLQLLEDPYTFGQGTKLEIK : 5.72e-05
3) CNG-CD19-707 (antibody, V domains shown, tested as IgG produced in yeast) VH: QVQLQESGPGLVKPSQTLSLTCTVSGGSISTSTMGVGWIRQHPGKGLEWIGFIWWDDDKRYNPNLKSRVTMSVDTSKNQFSLKLSSVTAADTAVYYCARMELWSYYFDPWGQGTLVTVSS VL: EIVLTQSPATLSLSPGERATLSCSASSSVGYMHWYQQKPGQAPRLLIYDTSKLASGIPARFSGSGSGTDFTLTISSLEPEDFAVYYCFQGSVYPFTFGQGTKLEIK : 4.66e-05

# evaluate next
Tell me koff reported for CNG-CD19-701 (antibody, V domains shown, tested as IgG produced in yeast) VH: QVQLQESGPGLVKPSQTLSLTCTVSGGSISTSTMGVGWIRQHPGKGLEWIGFIWWDDDKRYNPNLKSRVTMSVDTSKNQFSLKLSSVTAADTAVYYCARMELWSYYFDYWGQGTLVTVSS VL: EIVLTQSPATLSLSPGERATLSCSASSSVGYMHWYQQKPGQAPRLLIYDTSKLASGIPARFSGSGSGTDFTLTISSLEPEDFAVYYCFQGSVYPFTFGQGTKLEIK 7.05e-05
